Assignment: determine reported inhibition at 20 µM for the given molecules.
molecular target: Rac-1 (Homo sapiens, UniProt P63000); construct: made in house; experiment: Ras GTP Binding Domain Inhibition Assay (Ras Superfamily Assay); details: read-out: Rac-1: % inh.

Given `COc1ccc(N(C)c2nc(-c3nccn3C)nn3cc(-c4ccn(C)n4)c(C)c23)nc1` , state its recorded inhibition at 20 µM.
1 to 25%

Please answer likewise for `Cc1c(-c2ccn(C)n2)cn2nc(-c3nccn3C)nc(Nc3cc(C(F)(F)F)[nH]n3)c12`
76 to 100%

Please answer likewise for `Cc1c(-c2ccn(C)n2)cn2nc(-c3nccn3C)nc(Nc3ccc(C(F)(F)F)cn3)c12`
76 to 100%

Please answer likewise for `COc1ccnc(Nc2nc(-c3nccn3CCN)nn3cc(-c4ccn(C)n4)c(C)c23)c1`
76 to 100%

###

Target: Rheb (Homo sapiens, UniProt Q15382)
Construct: made in house
Sequence (Q15382 whole entry): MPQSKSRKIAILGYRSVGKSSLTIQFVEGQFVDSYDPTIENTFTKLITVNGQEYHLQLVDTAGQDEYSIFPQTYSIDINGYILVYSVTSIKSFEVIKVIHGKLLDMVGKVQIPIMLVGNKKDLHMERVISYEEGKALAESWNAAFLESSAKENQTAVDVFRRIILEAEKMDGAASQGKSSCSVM
Assay: Rheb GTP Binding Domain Inhibition Assay
Conditions: read-out: Rheb: % inh.
Procedure: Protocol for Cdc42 and Rheb GTP Binding Domain Inhibition Assay The following method was developed as specific assay for cdc42 and Rheb proteins. • 25 mM Tris-HCl, pH 7.4 • 27 mM KCl • 137 mM NaCl • 1 mM MgCl2 • 1 mM DTT Buffer-II: • 50 mM Tris-HCl, pH 7.0 • 1 mM MgCl2 • 1 mM DTT The small GTPases proteins cdc42 and Rheb were expressed as His-tagged proteins. […] Following washes, the amount of bound labeled-GTP was measured using a SpectraMax M3 (Molecular Devices).
Metric: inhibition at 20 µM

Given `Cc1c(-c2ccn(C(C)C)n2)cn2nc(-c3nccn3C)nc(Nc3ncco3)c12` , state its recorded inhibition at 20 µM.
26 to 49%

Please answer likewise for `Cc1c(-c2ccn(C(C)C)n2)cn2nc(-c3nccn3C)nc(Nc3ccccn3)c12`
76 to 100%

Please answer likewise for `COc1ccc(-c2cn3nc(-c4nccn4C)nc(Nc4cc(OC)ncn4)c3c2C)cn1`
50 to 75%

Please answer likewise for COc1cccc(-c2cn3nc(-c4nccn4C)nc(N[C@@H]4CC[C@@H](OC)C4)c3c2-c2ccccc2)c1Cl.Cl (racemic) [Compound 34, hydrochloride]
26 to 49%

###

test system: KRas wild type; assay: Ras GTP Binding Domain Inhibition Assay (Ras Superfamily Assay); conditions: at 20 μM, with SOS
Metric: KRas wild type + SOS: % inh.

Here are 4 molecules together with their reported answers.
>>> reading("CO[C@@H]1C[C@H]1Nc1nc(-c2nccn2C)nn2cc(-c3ccncc3)c(-c3ccccc3)c12 (racemic)")
"A (A = 1-25% inhibition)"
>>> reading("COc1cccc(-c2cn3nc(-c4nccn4C)nc(N[C@H]4C[C@H](OC)C4)c3c2-c2ccccc2)c1C")
"0 (0 = 0% inhibition)"
>>> reading("Cc1c(-c2ccn(C)n2)cn2nc(-c3nccn3C)nc(Nc3ccc(-n4ccnc4)cn3)c12")
"0 (0 = 0% inhibition)"
>>> reading("COc1cccc(-c2cn3nc(-c4nccn4C)nc(N[C@@H]4CC[C@@H](OC)C4)c3c2-c2ccccc2)c1C (racemic)")
"A (A = 1-25% inhibition)"

Given `Cc1c(-c2ccn(C)n2)cn2nc(-c3nccn3C)nc(N3CCc4cc(C(F)(F)F)cnc43)c12` , state its recorded KRas wild type + SOS: % inh..
A (A = 1-25% inhibition)

Please answer likewise for `COc1cccc(-c2cn3nc(-c4nccn4C)nc(N[C@H]4C[C@H](OC)C4)c3c2-c2ccccc2)c1OC`
0 (0 = 0% inhibition)

Please answer likewise for `CO[C@H]1C[C@H](Nc2nc(-c3nccn3C)nn3cc(-c4ccn(C)n4)c(C4CC4)c23)C1`
0 (0 = 0% inhibition)

###

system: MAPK p38 phosphorylation; experiment: MAPK p38 Activation Assay (western blot), Panc-1; assay type: cell-based, human; details: at 10 μM, Panc-1 pancreatic cancer cell line; starred symbols = activation
Metric: % inh of MAPK p38 in Panc-1

Here are 5 compounds together with their reported answers.
>>> reading("COc1cccc(-c2cn3nc(-c4nccn4C)nc(N[C@H]4C[C@H](OC)C4)c3c2-c2ccccc2)c1C [Compound 209]")
"H (H = 100% inhibition)"
>>> reading("CO[C@H]1C[C@H](Nc2nc(-c3nccn3C)nn3cc(-c4ccc(CCN)cc4)c(-c4ccccc4)c23)C1.Cl [Compound 207]")
"H (H = 100% inhibition)"
>>> reading("CO[C@H]1CC[C@@H](Nc2nc(-c3nccn3C)nn3cc(-c4ccncc4)c(-c4ccccc4)c23)C1 (racemic) [Compound 200]")
"E (E = 1-30% inhibition)"
>>> reading("CO[C@H]1CC[C@@H](Nc2nc(-c3nccn3C)nn3cc(-c4cccnc4)c(-c4ccccc4)c23)C1 (racemic) [Compound 193]")
"E (E = 1-30% inhibition)"
>>> reading("Cc1c(-c2ccn(C)n2)cn2nc(-c3nccn3C)nc(Nc3cc4c(cn3)CCO4)c12 [Compound 221]")
"E (E = 1-30% inhibition)"

Given COc1cccc(-c2cn3nc(-c4nccn4C)nc(N[C@@H]4CC[C@@H](OC)C4)c3c2-c2ccccc2)c1Cl.Cl (racemic) [Compound 34] , state its recorded % inh of MAPK p38 in Panc-1.
H (H = 100% inhibition)

Please answer likewise for CO[C@H]1CC[C@H](Nc2nc(-c3nccn3C)nn3cc(-c4cccnc4)c(-c4ccccc4)c23)C1 (racemic) [Compound 194]
E (E = 1-30% inhibition)

Please answer likewise for COc1cccc(-c2cn3nc(-c4nccn4C)nc(N[C@@H]4CC[C@H](OC)C4)c3c2-c2ccccc2)c1Cl (racemic) [Compound 33]
H (H = 100% inhibition)

###

test system: Erk1/2 phosphorylation; assay: Erk1/2 Phosphorylation Assay (western blot), Panc-1; assay type: cell-based, human; details: at 10 μM, * = activation
Metric: % inh of Erk1/2 phosphorylation in Panc-1

>>> reading("Cc1c(-c2ccn(C)n2)cn2nc(-c3nccn3C)nc(Nc3ccccn3)c12")
"D* (85-100% activation)"
>>> reading("COc1ccnc(Nc2nc(-c3nccn3C)nn3cc(-c4cccnc4)c(-c4ccccc4)c23)c1")
"D* (85-100% activation)"

###

target: Rac-1 (Homo sapiens); construct: made in house; assay: Ras GTP Binding Domain Inhibition Assay (Ras Superfamily Assay); settings: read-out: Rac-1: % inh.
Assignment: determine reported inhibition at 20 µM for the given compounds.

Given `Cc1ccnc(Nc2nc(-c3nccn3C)nn3cc(-c4ccn(C5CC5)n4)c(C)c23)c1` , state its recorded inhibition at 20 µM.
76 to 100%

Please answer likewise for `CO[C@H]1C[C@H](Nc2nc(-c3nccn3C)nn3cc(-c4cccnc4)c(-c4ccccn4)c23)C1`
1 to 25%

Please answer likewise for `Cc1c(-c2ccn(C(C)C)n2)cn2nc(-c3nccn3C)nc(Nc3ccn(C4CC4)n3)c12`
76 to 100%

Please answer likewise for `Cc1c(-c2ccn(C3CC3)n2)cn2nc(-c3nccn3C)nc(Nc3cc(O)ccn3)c12`
50 to 75%

Please answer likewise for `COCCO[C@H]1C[C@H](Nc2nc(-c3nccn3C)nn3cc(-c4ccnc(OC)c4)c(C)c23)C1`
1 to 25%

Please answer likewise for `CO[C@H]1C[C@H](Nc2nc(-c3nccn3C)nn3cc(-c4cccnc4)c(-c4cccnc4)c23)C1`
1 to 25%

Please answer likewise for `Cc1c(-c2ccn(C3CC3)n2)cn2nc(-c3nccn3C)nc(Nc3cc(N(C)C)ccn3)c12`
76 to 100%

Please answer likewise for `COc1ccnc(Nc2nc(-c3nccn3C)nn3cc(-c4cccnc4)c(-c4cccnc4)c23)c1`
76 to 100%

Please answer likewise for `Cc1c(-c2ccn(C(C)C)n2)cn2nc(-c3nccn3C)nc(Nc3nccn3C)c12`
76 to 100%

Please answer likewise for `Cc1c(-c2ccn(C)n2)cn2nc(-c3nccn3C)nc(Nc3cc(OCCO)ncn3)c12`
76 to 100%

Please answer likewise for CO[C@H]1CC[C@H](Nc2nc(-c3nccn3C)nn3cc(-c4ccncc4)c(-c4ccccc4)c23)C1 (racemic)
26 to 49%

Please answer likewise for `COc1cc(Nc2nc(-c3nccn3C)nn3cc(-c4ccn(C)n4)c(C)c23)nn1C`
76 to 100%

Please answer likewise for `COc1ccc(Nc2nc(-c3nccn3C)nn3cc(-c4ccn(C)n4)c(C)c23)nc1`
76 to 100%

Please answer likewise for `Cc1c(-c2ccn(C(C)C)n2)cn2nc(-c3nccn3C)nc(Nc3cnn(C(C)C)n3)c12`
76 to 100%

Please answer likewise for COC[C@@H]1CC[C@@H]1CNc1nc(-c2ccccn2)nn2cc(-c3ccn(C(C)C)n3)c(C)c12 (racemic)
0%

###

test system: KRas wild type; assay: Ras GTP Binding Domain Inhibition Assay (Ras Superfamily Assay); details: 20 μM compound, without SOS
Metric: KRas wild type: % inh.

Here are 5 molecules together with their reported answers.
>>> reading("COC[C@@H]1CC[C@@H]1CNc1nc(-c2ccccn2)nn2cc(-c3ccn(C(C)C)n3)c(-c3ccccc3)c12 (racemic)")
"A (A = 1-25% inhibition)"
>>> reading("COc1ccc(Nc2nc(-c3nccn3C)nn3cc(-c4ccn(C(C)C)n4)c(C)c23)cn1")
"0 (0 = 0% inhibition)"
>>> reading("Cn1ccnc1-c1nc(OCCN2CCCC2)c2c(-c3ccccc3)ccn2n1")
"A (A = 1-25% inhibition)"
>>> reading("COc1cccc(Nc2nc(-c3nccn3C)nn3ccc(-c4ccccc4)c23)n1")
"0 (0 = 0% inhibition)"
>>> reading("COCCNc1nc(-c2nccn2C)nn2cc(-c3ccn(C(C)C)n3)c(C(C)C)c12")
"A (A = 1-25% inhibition)"

Okay, now this molecule:
Given `COc1cccc(-c2cn3nc(-c4nccn4C)nc(O)c3c2C)c1Cl` , state its recorded KRas wild type: % inh..
A (A = 1-25% inhibition)
